Origin of measurements: patent US20190192524A1

- Tgt: human caspase 6 lacking the pro-domain (Homo sapiens, UniProt P55212)
- Sequence (P55212 with tags, fused parts or gaps): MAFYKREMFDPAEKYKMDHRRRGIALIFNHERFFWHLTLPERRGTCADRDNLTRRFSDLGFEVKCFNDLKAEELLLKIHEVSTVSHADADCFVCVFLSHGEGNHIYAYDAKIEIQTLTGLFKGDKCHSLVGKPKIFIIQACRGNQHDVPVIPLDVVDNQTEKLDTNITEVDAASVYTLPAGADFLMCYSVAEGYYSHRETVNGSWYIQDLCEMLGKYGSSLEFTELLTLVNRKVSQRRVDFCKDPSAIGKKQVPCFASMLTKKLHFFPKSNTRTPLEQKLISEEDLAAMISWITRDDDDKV
- Method Notes: Lamin A cleavage in HEK 293 cells overexpressing caspase-6 (Mesoscale ELISA)
- Condition Label: 24 hr incubation; cleaved lamin A quantified; read-out: HEK intracellular IC50
Parameter: IC50 (µM)
Give the value, in units of µM, as a plain number.

Observe how each entry below is paired with its result.
INSERT INTO measurements (molecule, measurement_unit, result_value) VALUES
  ('O=c1oc(C#Cc2ccccc2)nc(O)c1-c1ccccc1 [PG-3e]', 'µM', 2.5),
  ('O=C(C#Cc1ccccc1)NC(=O)Cc1ccccc1 [PG-3h, 3-Phenyl-N-(phenylacetyl)prop-2-ynamide]', 'µM', 4.8),
  ('CCc1c(O)nc(C#Cc2ccccc2)oc1=O [PG-3b]', 'µM', 12.1),
  ('O=c1oc(C#Cc2ccc(Cl)cc2)nc(O)c1-c1ccccc1 [PG-3g]', 'µM', 3.9);

Give IC50 for O=c1oc(C#Cc2ccccc2)nc(O)c1Cc1ccccc1 [PG-3d]
2.6

* * *

Entries and their pIC50
- Tgt: recombinant caspase-6 (Homo sapiens, UniProt P55212)
- Sequence (P55212 24-293): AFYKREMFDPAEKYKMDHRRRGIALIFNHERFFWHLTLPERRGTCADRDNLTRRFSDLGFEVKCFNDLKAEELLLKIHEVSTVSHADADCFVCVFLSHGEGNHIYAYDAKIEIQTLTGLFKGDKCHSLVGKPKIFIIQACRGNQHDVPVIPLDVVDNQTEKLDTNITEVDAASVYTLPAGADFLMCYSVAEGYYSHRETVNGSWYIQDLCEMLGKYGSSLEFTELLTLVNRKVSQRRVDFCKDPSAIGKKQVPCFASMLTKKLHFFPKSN
- Method Notes: Simultaneous caspase-6 cleavage and 586 fragment detection by FRET
- Condition Label: cell-free; Htt substrate from COS-7 cell lysates
Friendly reminder that pIC50 comes from taking -log10 of the concentration in mol/L.

Observe how each entry below is paired with its result.
INSERT INTO results (compound, tgt, result_value) VALUES
  ('CCCCc1c(O)nc(C#Cc2ccccc2)oc1=O', 'recombinant caspase-6 (Homo sapiens, UniProt P55212)', 4.86),
  ('O=c1oc(C#Cc2ccccc2)nc(O)c1-c1ccccc1', 'recombinant caspase-6 (Homo sapiens, UniProt P55212)', 5.41),
  ('CC(C)c1c(O)nc(C#Cc2ccccc2)oc1=O', 'recombinant caspase-6 (Homo sapiens, UniProt P55212)', 4.91),
  ('Cc1c(O)nc(C#Cc2ccccc2Cl)oc1=O', 'recombinant caspase-6 (Homo sapiens, UniProt P55212)', 4.24),
  ('O=c1oc(C#Cc2ccc(Cl)cc2)nc(O)c1-c1ccccc1', 'recombinant caspase-6 (Homo sapiens, UniProt P55212)', 5.12),
  ('O=c1oc(C#Cc2ccccc2)nc(O)c1Cc1ccccc1', 'recombinant caspase-6 (Homo sapiens, UniProt P55212)', 5.25),
  ('CCc1c(O)nc(C#Cc2ccccc2)oc1=O', 'recombinant caspase-6 (Homo sapiens, UniProt P55212)', 5.10),
  ('Cc1c(O)nc(C#Cc2ccccc2)oc1=O', 'recombinant caspase-6 (Homo sapiens, UniProt P55212)', 5.09);

Please examine the following record next.
Give pIC50 for O=C(C#Cc1ccccc1)NC(=O)Cc1ccccc1 [PG-3h, 3-Phenyl-N-(phenylacetyl)prop-2-ynamide]
5.09

* * *

Entries and their melting point

INSERT INTO results (molecule, parameter, result_value) VALUES
  ('Cc1c(O)nc(C#Cc2ccccc2)oc1=O', 'melting point', '184 to 186 °C'),
  ('CCCCc1c(O)nc(C#Cc2ccccc2)oc1=O', 'melting point', '157 to 159 °C'),
  ('O=c1oc(C#Cc2ccccc2)nc(O)c1-c1ccccc1', 'melting point', '187 to 189 °C'),
  ('O=c1oc(C#Cc2ccc(Cl)cc2)nc(O)c1-c1ccccc1', 'melting point', '185 to 187 °C (dec.)'),
  ('O=c1oc(C#Cc2ccccc2)nc(O)c1Cc1ccccc1', 'melting point', '179 to 181 °C');

Give melting point for `CCc1c(O)nc(C#Cc2ccccc2)oc1=O`
177 to 178 °C

Give melting point for `Cc1c(O)nc(C#Cc2ccccc2Cl)oc1=O`
175 to 178 °C

Give melting point for `CC(C)c1c(O)nc(C#Cc2ccccc2)oc1=O`
202 to 203 °C
